These data points were gathered from patent US20210221899A1.

TARGET_OR_TEST_SYSTEM: T1, canine NGF (canine, UniProt Q29074 110-229 (pig entry), limits assumed)
T1 construct: The protein was secreted from CHO cells and purified; also called cNGF; canine β-NGF
T1 chain: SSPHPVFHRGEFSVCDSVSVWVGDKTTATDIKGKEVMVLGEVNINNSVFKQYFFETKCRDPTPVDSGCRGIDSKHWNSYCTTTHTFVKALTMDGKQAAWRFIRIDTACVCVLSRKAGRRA
EXPERIMENT_DESCRIPTION: SPR (Biacore T200), 100 nM mAb on NGF chip, similarity to parent mAb
Description: The region of an antibody responsible for antigen recognition represents the paratope. A paratope is created by a combination of amino acids in the complementarity determining regions (CDRs) of both the heavy and light chain variable regions. The binding between antibody and antigen is often mediated by side chains of CDR residues with side chains or carbohydrate moieties of the antigen. […]
MEASUREMENT_LABEL: Percent Similarity Score (KD on cN)
Answer with the value and then the unit.

- BINDER: "can9L12VL_V100A (antibody, V domains shown) VH: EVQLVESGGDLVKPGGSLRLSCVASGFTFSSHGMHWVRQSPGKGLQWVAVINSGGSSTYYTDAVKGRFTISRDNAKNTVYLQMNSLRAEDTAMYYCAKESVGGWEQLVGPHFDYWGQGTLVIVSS VL: QSVLTQPTSVSGSLGQRVTISCSGSTNNIGILGASWYQLFPGKAPKLLVYGNGNRPSGVPDRFSGADSGDSVTLTITGLQAEDEADYYCQSFDTTLGAHAFGGGTHLTVL"
  MEASUREMENT_LABEL: "Percent Similarity Score (KD on cN)"
  ENDPOINT_VALUE: "58.2%"

Now consider the entry below.
In: Which Percent Similarity Score (KD on cN) value is on record for can48L2VL_I101A (antibody, V domains shown, CDR scanning mutant of ZTS-842 (48L2)) VH: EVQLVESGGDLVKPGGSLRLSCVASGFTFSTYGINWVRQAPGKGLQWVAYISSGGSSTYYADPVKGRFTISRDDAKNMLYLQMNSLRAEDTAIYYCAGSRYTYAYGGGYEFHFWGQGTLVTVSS VL: QAVLNQPASVSGALGQKVTISCSGSTMDIDIFGVSWYQQLPGKAPKLLVDSDGDRPSGIPDRFSGSRSGNSGTLTITGLQAEDEADYHCQSGDSTLGALAAFGGGTHVTVL ?
Out: 97.3%
